- Tested target: T1, human tankyrase 2 ankyrin repeat cluster 4 (TNKS2 ARC4, residues 488-649) (human, UniProt Q9H2K2 488-649)
- T1 sequence (looked up): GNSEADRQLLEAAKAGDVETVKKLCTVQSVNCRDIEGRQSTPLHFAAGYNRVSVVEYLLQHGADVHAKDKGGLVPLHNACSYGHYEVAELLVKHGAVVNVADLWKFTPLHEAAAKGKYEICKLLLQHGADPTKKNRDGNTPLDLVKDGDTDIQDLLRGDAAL
- Assay protocol: fluorescence polarisation; competition: unlabeled peptide or Axin1 fragment diluted 2-fold serially against TAMRA-labeled pep1 (20 nM) with TNKS2 ARC4 (3 uM); PBS, 0.05% Tween 20; 30 min, 25 C
- Run conditions: both partners purified
Bridge positions count the residues as written; N and C are the ends. Square brackets hold non-standard residues; d marks the D form. Ends that are not written are not given here. n3 = azido unnatural amino acid, 3 CH2 in side chain; Lys(N3) = [N-]=[N+]=NCCCC[C@H](N)C(=O)O; Aha = [N-]=[N+]=NCC[C@H](N)C(=O)O
Reported Kd is given for each of the following binders.
Observed property: Kd (µM)

binder="Ac-R[Aha]AGDG[Aha]E (bridge 2-7; not fully specified (bridges)) [cp2n2m7N]" observed_property=Kd experimental_value=53.3
binder="Ac-R[Lys(N3)]AGDGE[Lys(N3)] (bridge 2-8; not fully specified (bridges)) [cp3n4m7N]" observed_property=Kd experimental_value=35.5
binder="Ac-RE[Lys(N3)]GDG[Lys(N3)]E (bridge 3-7; not fully specified (bridges)) [cp4n4m7N]" observed_property=Kd experimental_value=6.5
binder="Ac-R[n3]AGDG[n3]E (bridge 2-7; not fully specified (bridges)) [cp2n3m7N]" observed_property=Kd experimental_value=14.7
binder="Ac-RE[Lys(N3)]GDG[Lys(N3)]E (bridge 3-7; not fully specified (bridges)) [cp4n4m5c]" observed_property=Kd experimental_value=16.7
binder="Ac-RE[Lys(N3)]GDG[Lys(N3)]E-NH2 (bridge 3-7; not fully specified (bridges)) [cp4n4m5]" observed_property=Kd experimental_value=2.8
binder="Ac-R[Lys(N3)]AGDG[Lys(N3)]E (bridge 2-7; not fully specified (bridges)) [cp2n4m7N]" observed_property=Kd experimental_value=32.4
binder="Ac-R[Lys(N3)]AGDGE[Lys(N3)] (bridge 2-8; not fully specified (bridges)) [cp3n4m5]" observed_property=Kd experimental_value=23.4
binder="Ac-RE[Lys(N3)]GDGE[Lys(N3)] (bridge 3-8; not fully specified (bridges)) [cp5n4m5c]" observed_property=Kd experimental_value=13.9
binder="Ac-RE[Lys(N3)]GDGE[Lys(N3)] (bridge 3-8; not fully specified (bridges)) [cp5n4m5]" observed_property=Kd experimental_value=7.9
binder="Ac-R[Lys(N3)]AGDG[Lys(N3)]E (bridge 2-7; not fully specified (bridges)) [cp2n4m5]" observed_property=Kd experimental_value=14.1

Sourced from paper PMC5358875
